So I've got a bunch of compounds here, and I need their log10 EC50 values.
tested on: MDA-MB-468 (Trop-2 positive cell lines); assay: In-vitro cell activity test (CCK8), MDA-MB-468; format: cell-based; settings: Homo sapiens, 96 h; MDA-MB-468, 7500 cells/well, 4 days; read-out: EC50 (nM), killing effects of bioactive molecules on cells
Non-standard residues stand in square brackets, D forms with d. Residues, ends and D or L forms follow the SMILES beside them. ξ: configuration not given here. *: point of attachment. Dolaproine = CO[C@@H]([C@@H]1CCCN1)[C@@H](C)C(=O)O; Dil = CC[C@H](C)[C@H](NC)[C@@H](CC(=O)O)OC; NH(4-aminobenzyl) = Nc1ccc(CN*)cc1; NMe2Val = CC(C)[C@@H](C(=O)*)N(C)C; β3hF = N[C@H](CC(=O)O)Cc1ccccc1; ξF = NC(Cc1ccccc1)C(=O)O
Reminder: these figures are log10 of reported EC50, in nM before transformation.

The cases that follow already have their log10 EC50 on record.
Specify reported log10 EC50 for the compound shown: CC[C@H](C)[C@@H]([C@@H](CC(=O)N1CCC[C@H]1[C@H](OC)[C@@H](C)C(=O)NC(Cc1ccccc1)C(=O)NCc1ccc(N)cc1)OC)N(C)C(=O)[C@@H](NC(=O)[C@H](C(C)C)N(C)C)C(C)C (some centres unmarked) [T001] (NMe2Val-V[Dil][Dolaproine][ξF]-{NH(4-aminobenzyl)})
0.05

Specify reported log10 EC50 for the compound shown: CC[C@H](C)[C@@H]([C@@H](CC(=O)N1CCC[C@H]1[C@H](OC)[C@@H](C)C(=O)NCC(=O)NCc1ccc(N)cc1)OC)N(C)C(=O)[C@@H](NC(=O)[C@H](C(C)C)N(C)C)C(C)C [T015] (NMe2Val-V[Dil][Dolaproine]G-{NH(4-aminobenzyl)})
0.87

Specify reported log10 EC50 for the compound shown: CC[C@H](C)[C@@H]([C@@H](CC(=O)N1CCC[C@H]1[C@H](OC)[C@@H](C)C(=O)N[C@@H](Cc1ccccc1)C(=O)NCc1ccc(N)cc1)OC)N(C)C(=O)[C@@H](NC(=O)[C@H](C(C)C)N(C)C)C(C)C [T011] (NMe2Val-V[Dil][Dolaproine]F-{NH(4-aminobenzyl)})
-0.68

Below are 2 compounds. Give each one its log10 EC50.
1. CC[C@H](C)[C@@H]([C@@H](CC(=O)N1CCC[C@H]1[C@H](OC)[C@@H](C)C(=O)N[C@H](CC(=O)NCc1ccc(N)cc1)Cc1ccccc1)OC)N(C)C(=O)[C@@H](NC(=O)[C@H](C(C)C)N(C)C)C(C)C [T013] (NMe2Val-V[Dil][Dolaproine][β3hF]-{NH(4-aminobenzyl)})
2. CC[C@H](C)[C@@H]([C@@H](CC(=O)N1CCC[C@H]1[C@H](OC)[C@@H](C)C(=O)N[C@H](Cc1ccccc1)C(=O)NCc1ccc(N)cc1)OC)N(C)C(=O)[C@@H](NC(=O)[C@H](C(C)C)N(C)C)C(C)C [T012] (NMe2Val-V[Dil][Dolaproine][dF]-{NH(4-aminobenzyl)})

1. -0.38
2. 0.21
